# subject of test: T1, human GLP-1R (Genebank Accession No. NM_002062) on hGLP-1R/CRE-luc/CHO-K1 cells (human), P43220
# T1 chain: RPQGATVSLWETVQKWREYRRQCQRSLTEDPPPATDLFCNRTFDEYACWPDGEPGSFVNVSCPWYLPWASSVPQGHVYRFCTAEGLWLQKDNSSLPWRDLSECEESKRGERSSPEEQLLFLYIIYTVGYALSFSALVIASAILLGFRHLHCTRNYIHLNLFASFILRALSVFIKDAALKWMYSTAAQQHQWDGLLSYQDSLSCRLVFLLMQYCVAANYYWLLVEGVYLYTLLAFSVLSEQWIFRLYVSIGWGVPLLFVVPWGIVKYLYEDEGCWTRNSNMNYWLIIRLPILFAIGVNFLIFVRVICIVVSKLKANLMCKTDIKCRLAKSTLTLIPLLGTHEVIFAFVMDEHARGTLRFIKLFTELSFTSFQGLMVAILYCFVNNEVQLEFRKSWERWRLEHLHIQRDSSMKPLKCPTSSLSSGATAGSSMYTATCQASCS
# experiment notes: cell-based or functional assay
Square brackets hold non-standard residues; d marks the D form. Primed or numbered codes have the meaning given here. Side chains are listed from the residue outwards. Ends that are not written are not given here. * marks the point of attachment. C20 diacid = O=C(O)CCCCCCCCCCCCCCCCCCC(=O)*; C16 diacid = O=C(O)CCCCCCCCCCCCCCC(=O)*; Iva = CC[C@](C)(N)C(=O)O; PEG3′ = not defined here; AGlu = not defined here; Aib = CC(C)(N)C(=O)O
Hi there, I'd appreciate the recorded hGLP-1R (Reporter gene assay)(EC50) for every entry that follows.

Quick one: hGLP-1R (Reporter gene assay)(EC50) for Y[Aib]EGTFISDYSIALDR[Aib]HQ[Aib]NFVNW[Iva]LAQRPSSGAPPPSK([PEG(2)-C16 diacid]) (ends and bridges not checked) [Compound No. 46] ? > 1000 nM

Please answer likewise for Y[Aib]EGTFISDYSIALDR[Aib]HQ[Aib]NFVNW[Iva]LAQRPSSGAPPPSK([PEG3′-PEG3′-AGlu-C20 diacid]) (ends and bridges not checked) [Compound No. 23] > 1000 nM

Please answer likewise for Y[Aib]EGTFISDYSIALDR[Aib]HQ[Aib]NFVNW[Iva]LAQRPSSGAPPPSK([PEG(2)-C20 diacid]) (ends and bridges not checked) [Compound No. 38] > 1000 nM
